- TARGET SYSTEM: CDK2 (human)
- RUN DESCRIPTION: Cell-Based Assay
- TEST CONDITIONS: mda-mb-435
Reported values of IC50 for individual entries

- STRUCTURE NOTATION: "CCOC(=O)c1[nH]nc2c1N=C(c1ccccc1Cl)c1cc([N+](=O)[O-])ccc1N2"
  IC50: "10 to 30 µM"
- STRUCTURE NOTATION: "O=[N+]([O-])c1ccc2c(c1)C(c1ccccc1Cl)=Nc1c(n[nH]c1-c1c[nH]cn1)N2"
  IC50: "1.1 to 9.99 µM"
- STRUCTURE NOTATION: "CN(C)Cc1[nH]nc2c1N=C(c1ccccc1Cl)c1cc([N+](=O)[O-])ccc1N2"
  IC50: "10 to 30 µM"
- STRUCTURE NOTATION: "CCc1[nH]nc2c1N=C(c1ccccc1Cl)c1cc([N+](=O)[O-])ccc1N2"
  IC50: "0.01 to 1 µM"
- STRUCTURE NOTATION: "CCOC(=O)c1ccc2c(c1)C(c1ccccc1F)=Nc1c(n[nH]c1C)N2"
  IC50: "1.1 to 9.99 µM"

get_value(item= `O=[N+]([O-])c1ccc2c(c1)C(c1ccccc1Cl)=Nc1c(n[nH]c1CCc1ccccc1)N2` , readout=IC50) returns 10 to 30 µM

get_value(item= `CC(C)c1[nH]nc2c1N=C(c1ccccc1Cl)c1cc([N+](=O)[O-])ccc1N2` , readout=IC50) returns 0.01 to 1 µM

get_value(item= `O=[N+]([O-])c1ccc2c(c1)C(c1ccccc1Cl)=Nc1c(n[nH]c1Cc1ccccc1)N2` , readout=IC50) returns 10 to 30 µM

---

- TARGET SYSTEM: CDK2 (human)
- RUN DESCRIPTION: Cell-Based Assay
- TEST CONDITIONS: hct 116
Reported values of IC50 for individual entries

Consider the reported IC50 for these molecules:
- STRUCTURE NOTATION: "O=[N+]([O-])c1ccc2c(c1)C(c1ccccc1Cl)=Nc1c[nH]nc1N2"
  IC50: "10 to 30 µM"
- STRUCTURE NOTATION: "O=[N+]([O-])c1ccc2c(c1)C(c1ccccc1Cl)=Nc1c(n[nH]c1-c1ccc(OC(F)(F)F)cc1)N2"
  IC50: "10 to 30 µM"
- STRUCTURE NOTATION: "O=[N+]([O-])c1ccc2c(c1)C(c1ccccc1Cl)=Nc1c(n[nH]c1-c1cc3ccccc3[nH]1)N2"
  IC50: "10 to 30 µM"
- STRUCTURE NOTATION: "Cc1cn[nH]c1-c1[nH]nc2c1N=C(c1ccccc1Cl)c1cc([N+](=O)[O-])ccc1N2"
  IC50: "1.1 to 9.99 µM"

Field IC50 (CDK2 (human)), entry `O=[N+]([O-])c1ccc2c(c1)C(c1ccccc1Cl)=Nc1c(n[nH]c1-c1cccc3c1OCO3)N2` : 10 to 30 µM

Field IC50 (CDK2 (human)), entry `Clc1ccccc1C1=Nc2c[nH]nc2Nc2ccccc21` : 10 to 30 µM

Field IC50 (CDK2 (human)), entry `O=[N+]([O-])c1ccc2c(c1)C(c1ccccc1F)=Nc1c[nH]nc1N2` : 10 to 30 µM

Field IC50 (CDK2 (human)), entry `O=[N+]([O-])c1ccc2c(c1)C(c1ccccc1Cl)=Nc1c(n[nH]c1-c1cccnc1)N2` : 10 to 30 µM

Field IC50 (CDK2 (human)), entry `O=C(c1ccc2c(c1)C(c1ccccc1F)=Nc1c[nH]nc1N2)N1CCOCC1` : 10 to 30 µM

Hello, the source for this data is the Kinase Knowledgebase extract (Sharma et al. 2016), in case you need it.
